- target.desc: COX-2 (Homo sapiens)
- assay.overview: Human whole blood assay, COX-2 (LPS-induced PGE2 production)
- Type: cell-based
- Set-up: incubation of human whole blood with LPS, which induces COX-2; from tissue; host or cells: fresh human whole blood (volunteers), incubated with LPS
- run.parameters: LPS-induced PGE2, 24 hours at 37° C, read-out: COX-2 (IC50 μM) HWB
measured.property: IC50 (µM)

Field: example entries. Status: answers known.
{"smiles.input": "CC(C)Cn1ncc(-c2ccc(S(C)(=O)=O)cc2)c(-c2ccc(F)cc2)c1=O", "unit.name": "µM", "IC50": 3.8}
{"smiles.input": "CS(=O)(=O)c1ccc(-c2cnn(Cc3ccccc3)c(=O)c2Oc2ccc(Br)cn2)cc1", "unit.name": "µM", "IC50": 0.86}
{"smiles.input": "CS(=O)(=O)c1ccc(-c2cnn(CCc3ccccc3)c(=O)c2-c2ccc(F)cc2)cc1", "unit.name": "µM", "IC50": 8.6}

1: CS(=O)(=O)c1ccc(-c2cnn(Cc3ccccc3)c(=O)c2-c2cccnc2)cc1
2: CS(=O)(=O)c1ccc(-c2cnn(-c3cccc(F)c3)c(=O)c2-c2ccccc2)cc1
[ask] // returns 1 or 2 , whichever has the lower IC50 Your answer should be the label attached to the chosen record.
[reply] 1
(1: 1.5 µM, 2: 5.5 µM)

a: CS(=O)(=O)c1ccc(-c2cnn(CCCC(F)(F)F)c(=O)c2-c2ccc(F)cc2)cc1
b: Cc1ccc(-c2c(-c3ccc(S(C)(=O)=O)cc3)cnn(Cc3ccccc3)c2=O)cc1
[ask] // returns a or b , whichever has the lower IC50 Your answer should be the label attached to the chosen record.
[reply] b
(b: 0.35 µM, a: 1.3 µM)

###

- target.desc: COX-2 (Homo sapiens)
- Sequence (P35354 18-604): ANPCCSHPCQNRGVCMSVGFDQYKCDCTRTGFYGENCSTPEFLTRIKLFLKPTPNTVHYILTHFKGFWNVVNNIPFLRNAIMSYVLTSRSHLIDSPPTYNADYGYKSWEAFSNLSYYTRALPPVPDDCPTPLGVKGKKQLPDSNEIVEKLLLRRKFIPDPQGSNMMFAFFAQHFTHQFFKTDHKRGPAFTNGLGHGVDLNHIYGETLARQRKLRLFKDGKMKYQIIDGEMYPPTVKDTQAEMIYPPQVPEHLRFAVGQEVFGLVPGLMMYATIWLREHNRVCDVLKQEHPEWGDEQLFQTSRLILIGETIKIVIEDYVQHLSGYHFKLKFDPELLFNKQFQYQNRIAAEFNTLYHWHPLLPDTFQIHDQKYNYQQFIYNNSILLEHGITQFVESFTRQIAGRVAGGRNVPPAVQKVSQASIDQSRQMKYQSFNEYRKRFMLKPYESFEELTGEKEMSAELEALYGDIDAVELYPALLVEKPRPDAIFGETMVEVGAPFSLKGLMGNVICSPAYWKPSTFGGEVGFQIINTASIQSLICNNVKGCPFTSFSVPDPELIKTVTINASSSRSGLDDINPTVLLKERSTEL
- assay.overview: Human whole blood assay, COX-2 (LPS-induced PGE2 production)
- Type: cell-based
- Set-up: incubation of human whole blood with LPS, which induces COX-2; from tissue; host or cells: fresh human whole blood (volunteers), incubated with LPS
- run.parameters: LPS-induced PGE2, 24 hours at 37° C, read-out: COX-2 (IC50 μM) HWB
measured.property: IC50 (µM)

Field: example entries. Status: answers known.
{"compound": "CS(=O)(=O)c1ccc(-c2cnn(Cc3cccc(F)c3)c(=O)c2-c2ccccc2)cc1", "target.desc": "COX-2 (Homo sapiens)", "numeric.value": 0.8}
{"compound": "CC(C)(C)Cn1ncc(-c2ccc(S(C)(=O)=O)cc2)c(-c2ccc(F)cc2)c1=O", "target.desc": "COX-2 (Homo sapiens)", "numeric.value": 2.4}
{"compound": "CS(=O)(=O)c1ccc(-c2cnn(Cc3ccccc3)c(=O)c2Oc2ccc(Cl)cn2)cc1", "target.desc": "COX-2 (Homo sapiens)", "numeric.value": 0.9}

I: CS(=O)(=O)c1ccc(-c2cnn(CC3CCC3)c(=O)c2-c2ccc(F)cc2)cc1
II: CS(=O)(=O)c1ccc(-c2cnn(Cc3ccc(F)cc3)c(=O)c2-c2ccc(F)cc2)cc1
[ask] // returns I or II , whichever has the lower IC50 Your answer should be the label attached to the chosen record.
[reply] I
(I: 0.56 µM, II: 1.1 µM)

a: CS(=O)(=O)c1ccc(-c2cnn(Cc3ccncc3)c(=O)c2-c2ccc(F)cc2)cc1
b: CC(c1ccccc1)n1ncc(-c2ccc(S(C)(=O)=O)cc2)c(-c2ccc(F)cc2)c1=O (stereo not shown)
[ask] Select one: a or b . Criterion: greater recorded IC50. Your answer should be the label attached to the chosen record.
[reply] a
(a: 16.8 µM, b: 1.4 µM)
